Assayed system: Beta-secretase 1 (Homo sapiens)
Measurement notes: Activity of recombinant BACE assessed as substrate cleavage at 300 uM after 3 hrs by HPLC analysis
The source made the active and inactive calls. The rule behind the calls is not given here. Non-standard residues stand in square brackets, D forms with d. Residues, ends and D or L forms follow the SMILES beside them. Cit = NC(=O)NCCC[C@H](N)C(=O)O; Nva = CCC[C@H](N)C(=O)O

{"Compound": "CCC[C@H](NC(=O)[C@H](CCC(=O)O)NC(=O)[C@H](CO)NC(=O)[C@@H](N)[C@@H](C)CC)C(=O)N[C@@H](CC(N)=O)C(=O)N[C@@H](CC(C)C)C(=O)N[C@@H](CC(=O)O)C(=O)N[C@@H](C)C(=O)N[C@@H](CCC(=O)O)C(=O)N[C@@H](Cc1ccccc1)C(=O)N[C@@H](CCCNC(=N)N)C(=O)N[C@@H](Cc1cnc[nH]1)C(N)=O (H-ISE[Nva]NLDAEFRH-NH2)", "Assayed system": "Beta-secretase 1 (Homo sapiens)", "Activity": "Active"}
{"Compound": "CC[C@H](C)[C@H](N)C(=O)N[C@@H](CO)C(=O)N[C@@H](CCC(=O)O)C(=O)N[C@H](C(=O)N[C@@H](CC(N)=O)C(=O)N[C@@H](CCCNC(N)=O)C(=O)N[C@@H](CC(=O)O)C(=O)N[C@@H](C)C(=O)N[C@@H](CCC(=O)O)C(=O)N[C@@H](Cc1ccccc1)C(=O)N[C@@H](CCCNC(=N)N)C(=O)N[C@@H](Cc1cnc[nH]1)C(N)=O)C(C)C (H-ISEVN[Cit]DAEFRH-NH2)", "Assayed system": "Beta-secretase 1 (Homo sapiens)", "Activity": "Active"}

###

Assayed system: Beta-secretase 1 (Homo sapiens) (UniProt P56817)
Sequence (P56817 whole entry): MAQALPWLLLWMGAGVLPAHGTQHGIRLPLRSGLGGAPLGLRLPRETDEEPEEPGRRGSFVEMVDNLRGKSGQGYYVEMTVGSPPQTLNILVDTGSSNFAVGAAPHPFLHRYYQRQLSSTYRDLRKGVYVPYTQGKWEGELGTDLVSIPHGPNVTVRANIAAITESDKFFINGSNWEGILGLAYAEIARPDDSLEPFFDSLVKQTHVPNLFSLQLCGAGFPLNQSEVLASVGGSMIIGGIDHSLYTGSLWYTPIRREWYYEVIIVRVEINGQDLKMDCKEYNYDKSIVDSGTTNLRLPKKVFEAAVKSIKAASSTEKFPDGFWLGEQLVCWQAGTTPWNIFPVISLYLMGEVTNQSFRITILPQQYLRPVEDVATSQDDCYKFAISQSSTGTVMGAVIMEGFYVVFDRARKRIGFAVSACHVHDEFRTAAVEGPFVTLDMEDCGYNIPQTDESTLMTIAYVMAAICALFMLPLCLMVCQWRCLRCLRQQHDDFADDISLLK
Measurement notes: Activity of recombinant BACE assessed as retention time of substrate by HPLC method
Non-standard residues stand in square brackets, D forms with d. Residues, ends and D or L forms follow the SMILES beside them. Cha = N[C@@H](CC1CCCCC1)C(=O)O; Phg = N[C@H](C(=O)O)c1ccccc1
Entries and their retention time values follow.

{"Compound": "CC[C@H](C)[C@H](N)C(=O)N[C@@H](CO)C(=O)N[C@H](C(=O)N[C@H](C(=O)N[C@@H](CC(N)=O)C(=O)N[C@@H](CC(C)C)C(=O)N[C@@H](CC(=O)O)C(=O)N[C@@H](C)C(=O)N[C@@H](CCC(=O)O)C(=O)N[C@@H](Cc1ccccc1)C(=O)N[C@@H](CCCNC(=N)N)C(=O)N[C@@H](Cc1cnc[nH]1)C(N)=O)C(C)C)c1ccccc1 (H-IS[Phg]VNLDAEFRH-NH2)", "retention time / h": 0.582}
{"Compound": "CC[C@H](C)[C@H](N)C(=O)N[C@@H](CO)C(=O)N[C@@H](CCC(=O)O)C(=O)N[C@H](C(=O)N[C@@H](CC(N)=O)C(=O)N[C@@H](CC(C)C)C(=O)N[C@@H](CC1CCCCC1)C(=O)N[C@@H](C)C(=O)N[C@@H](CCC(=O)O)C(=O)N[C@@H](Cc1ccccc1)C(=O)N[C@@H](CCCNC(=N)N)C(=O)N[C@@H](Cc1cnc[nH]1)C(N)=O)C(C)C (H-ISEVNL[Cha]AEFRH-NH2)", "retention time / h": 0.727}
{"Compound": "CC[C@H](C)[C@H](N)C(=O)N[C@@H](CO)C(=O)N[C@@H](CCC(=O)O)C(=O)N[C@H](C(=O)N[C@@H](CC(N)=O)C(=O)N[C@@H](CC(C)C)C(=O)N[C@@H](CC(=O)O)C(=O)N[C@@H](C)C(=O)N[C@@H](CCC(=O)O)C(=O)N[C@@H](Cc1ccccc1)C(=O)N[C@@H](CCCNC(=N)N)C(=O)N[C@@H](Cc1cnc[nH]1)C(N)=O)C(C)C (H-ISEVNLDAEFRH-NH2)", "retention time / h": 0.487}

###

Assayed system: Beta-secretase 1 (Homo sapiens) (UniProt P56817)
Measurement notes: Activity of recombinant BACE assessed as retention time of substrate by HPLC method
Starred links: 1 amine or outer side, 2 acyl side, 3 side chain; linkers in the order of their positions; H or OH if unused. Non-standard residues stand in square brackets, D forms with d. Residues, ends and D or L forms follow the SMILES beside them. X1 = O=C(O)[C@@H]1Cc2ccccc2CN1[C@H](N[*:1])C(=O)[*:2]; 2Thi = N[C@@H](Cc1cccs1)C(=O)O; Cit = NC(=O)NCCC[C@H](N)C(=O)O; Abu = CC[C@H](N)C(=O)O
Think of 0.5 h as a floor: if retention time stands on it or above, it is 1; beneath it, -1.

{"Molecule": "CC[C@H](C)[C@H](N)C(=O)N[C@@H](CO)C(=O)N[C@H](C(=O)N[C@H](C(=O)N[C@@H](CC(N)=O)C(=O)N[C@@H](CC(C)C)C(=O)N[C@@H](CC(=O)O)C(=O)N[C@@H](C)C(=O)N[C@@H](CCC(=O)O)C(=O)N[C@@H](Cc1ccccc1)C(=O)N[C@@H](CCCNC(=N)N)C(=O)N[C@@H](Cc1cnc[nH]1)C(N)=O)C(C)C)N1Cc2ccccc2C[C@H]1C(=O)O (H-IS[X1]VNLDAEFRH-NH2)", "Assayed system": "Beta-secretase 1 (Homo sapiens) (UniProt P56817)", "Assigned category": 1}
{"Molecule": "CC[C@H](C)[C@H](N)C(=O)N[C@@H](CO)C(=O)N[C@@H](CCC(=O)O)C(=O)N[C@H](C(=O)N[C@@H](CC(N)=O)C(=O)N[C@@H](Cc1ccc(O)cc1)C(=O)N[C@@H](CC(=O)O)C(=O)N[C@@H](C)C(=O)N[C@@H](CCC(=O)O)C(=O)N[C@@H](Cc1ccccc1)C(=O)N[C@@H](CCCNC(=N)N)C(=O)N[C@@H](Cc1cnc[nH]1)C(N)=O)C(C)C (H-ISEVNYDAEFRH-NH2)", "Assayed system": "Beta-secretase 1 (Homo sapiens) (UniProt P56817)", "Assigned category": -1}
{"Molecule": "CC[C@H](C)[C@H](N)C(=O)N[C@@H](CO)C(=O)N[C@@H](CCC(=O)O)C(=O)N[C@H](C(=O)N[C@@H](CC(N)=O)C(=O)N[C@@H](CC(C)C)C(=O)N[C@@H](CC(=O)O)C(=O)N[C@@H](C)C(=O)N[C@@H](CCC(=O)O)C(=O)N[C@@H](Cc1ccccc1)C(=O)N[C@@H](CCCNC(=N)N)C(=O)N[C@@H](Cc1cnc[nH]1)C(N)=O)[C@@H](C)CC (H-ISEINLDAEFRH-NH2)", "Assayed system": "Beta-secretase 1 (Homo sapiens) (UniProt P56817)", "Assigned category": 1}
{"Molecule": "CC[C@H](C)[C@H](N)C(=O)N[C@@H](CO)C(=O)N[C@@H](CCC(=O)O)C(=O)N[C@H](C(=O)N[C@@H](CCCNC(N)=O)C(=O)N[C@@H](CC(C)C)C(=O)N[C@@H](CC(=O)O)C(=O)N[C@@H](C)C(=O)N[C@@H](CCC(=O)O)C(=O)N[C@@H](Cc1ccccc1)C(=O)N[C@@H](CCCNC(=N)N)C(=O)N[C@@H](Cc1cnc[nH]1)C(N)=O)C(C)C (H-ISEV[Cit]LDAEFRH-NH2)", "Assayed system": "Beta-secretase 1 (Homo sapiens) (UniProt P56817)", "Assigned category": -1}
{"Molecule": "CC[C@H](C)[C@H](N)C(=O)N[C@@H](CO)C(=O)N[C@@H](CCC(=O)O)C(=O)N[C@H](C(=O)N[C@@H](Cc1cccs1)C(=O)N[C@@H](Cc1cccs1)C(=O)O)[C@@H](C)CC (H-ISEI[2Thi][2Thi]-OH)", "Assayed system": "Beta-secretase 1 (Homo sapiens) (UniProt P56817)", "Assigned category": 1}
{"Molecule": "CC[C@H](C)[C@H](N)C(=O)N[C@@H](CO)C(=O)N[C@@H](CCC(=O)O)C(=O)N[C@H](C(=O)N[C@@H](CC(N)=O)C(=O)N[C@@H](Cc1cccs1)C(=O)N[C@@H](CC(=O)O)C(=O)N[C@@H](C)C(=O)N[C@@H](CCC(=O)O)C(=O)N[C@@H](Cc1ccccc1)C(=O)N[C@@H](CCCNC(=N)N)C(=O)N[C@@H](Cc1cnc[nH]1)C(N)=O)C(C)C (H-ISEVN[2Thi]DAEFRH-NH2)", "Assayed system": "Beta-secretase 1 (Homo sapiens) (UniProt P56817)", "Assigned category": -1}
{"Molecule": "CC[C@H](C)[C@H](N)C(=O)N[C@@H](CO)C(=O)N[C@@H](CCC(=O)O)C(=O)N[C@H](C(=O)N[C@@H](CCCCN)C(=O)N[C@@H](CCSC)C(=O)N[C@@H](CC(=O)O)C(=O)N[C@@H](C)C(=O)N[C@@H](CCC(=O)O)C(=O)N[C@@H](Cc1ccccc1)C(=O)N[C@@H](CCCNC(=N)N)C(=O)N[C@@H](Cc1cnc[nH]1)C(N)=O)C(C)C (H-ISEVKMDAEFRH-NH2)", "Assayed system": "Beta-secretase 1 (Homo sapiens) (UniProt P56817)", "Assigned category": -1}
{"Molecule": "CC[C@H](NC(=O)[C@H](CO)NC(=O)[C@@H](N)[C@@H](C)CC)C(=O)N[C@H](C(=O)N[C@@H](CC(N)=O)C(=O)N[C@@H](CC(C)C)C(=O)N[C@@H](CC(=O)O)C(=O)N[C@@H](C)C(=O)N[C@@H](CCC(=O)O)C(=O)N[C@@H](Cc1ccccc1)C(=O)N[C@@H](CCCNC(=N)N)C(=O)N[C@@H](Cc1cnc[nH]1)C(N)=O)C(C)C (H-IS[Abu]VNLDAEFRH-NH2)", "Assayed system": "Beta-secretase 1 (Homo sapiens) (UniProt P56817)", "Assigned category": 1}
